B1: Azoarcus group I ribozyme (parent)
chain: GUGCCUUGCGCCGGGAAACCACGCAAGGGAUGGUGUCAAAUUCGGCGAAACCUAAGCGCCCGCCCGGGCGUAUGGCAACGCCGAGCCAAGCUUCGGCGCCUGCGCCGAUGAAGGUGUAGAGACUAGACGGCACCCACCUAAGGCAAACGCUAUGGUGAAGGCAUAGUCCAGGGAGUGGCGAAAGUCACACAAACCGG

Variants of: B1
run-description: reverse-splicing fitness (ratio to wild type); higher = more active; in vitro selection; Mg2+ level not given
met means recorded reverse-splicing fitness is 0.009 or above; not met means it is below 0.009.

Task: Textbook exercise: given the entry C82G A111U A120U C150U C169G , state whether its reverse-splicing fitness is greater than or equal to 0.009.
Result: not met

Task: Textbook exercise: given the entry C82U A120C A145U C150A C169A U176A , state whether its reverse-splicing fitness is greater than or equal to 0.009.
Result: met

Task: Textbook exercise: given the entry A145C C150U C169A U176G , state whether its reverse-splicing fitness is greater than or equal to 0.009.
Result: not met

Task: Textbook exercise: given the entry A111U A120C C150U C169A U176C , state whether its reverse-splicing fitness is greater than or equal to 0.009.
Result: met

Task: Textbook exercise: given the entry C82G A111G A120U A145C U176G , state whether its reverse-splicing fitness is greater than or equal to 0.009.
Result: not met

Task: Textbook exercise: given the entry A111U C150A U176C , state whether its reverse-splicing fitness is greater than or equal to 0.009.
Result: met

Task: Textbook exercise: given the entry C82G A111C A120U A145G C150G C169A U176C , state whether its reverse-splicing fitness is greater than or equal to 0.009.
Result: not met

Task: Textbook exercise: given the entry C82G A111C A120G C150A U176A , state whether its reverse-splicing fitness is greater than or equal to 0.009.
Result: met

Task: Textbook exercise: given the entry C82G A111C A120C C150U C169A U176A , state whether its reverse-splicing fitness is greater than or equal to 0.009.
Result: met

Task: Textbook exercise: given the entry A120C A145U C150G C169U U176C , state whether its reverse-splicing fitness is greater than or equal to 0.009.
Result: met

Task: Textbook exercise: given the entry A120U A145U C169G U176G , state whether its reverse-splicing fitness is greater than or equal to 0.009.
Result: not met
